All figures here come from paper PMC9367177.

Would you mind telling me the reported pKd of each entry?
Target: T1, SARS-CoV-2 RBD (Wuhan-1) (SARS-CoV-2, Wuhan-1, UniProt P0DTC2)
T1 construct: source: Expi293, transfected, purified (Ni-NTA, SEC)
Method: SPR
Run Conditions: both partners purified
Please keep in mind that pKd is minus log10 of the molar concentration; only the number is needed.

Q: Would you kindly share the measured pKd for eCC6.30.9 (antibody, V domains shown, copies: 2 + 2) VH: QVQLVQSGAEVKKPGSSVKVSCKASGGIFSIYAITWVRQAPGQGLEWMGAIIPIIGTANYAQKFQGRVTITADKSTSTAYMELSSLRSEDTAVYYCARDFRYCSSTRCYFNFDPWGQGTLVTVSS VL: DIQMTQSPSSLSASVGDRVTITCRASQSISNYLNWYQQEAGKAPKLLIYTASSLQSGVPSRFSGSGSGTDFTLTISSLQPEDFATYYCQQSYSTPRTFGQGTKVDIK ?
Ans: 10.10

Q: Moving on to eCC6.33.6 (antibody, V domains shown, copies: 2 + 2) VH: QVQLVQSGAEVKKPGSSVKVSCKAPGGTFSSSAISWVRQAPGQGLEWMGGIIPILDITTYAQKFQGRVTITADKSTSTAFMELSSLRSEDTAVYYCALRNQWDLLIYWGQGTLVTVSS VL: EIVLTQSPGTLSLSPGERATLSCRASQSVSSHYLAWYQQKPGQAPRLLIYGASSRYTGIPDRFSGSGSGTDFTLTISRLEPEDFAVYYCQHYGSSHWTFGQGTKLEIK
Ans: 7.88

Q: Moving on to eCC6.33.5 (antibody, V domains shown, copies: 2 + 2) VH: QVQLVQSGAEVKKPGSSVKVSCKAVGGTFSSSAIYWVRQAPGQGLEWMGGIIPILDIANYAQKFQGRVTITADKSTSTAFMELSSLRSEDTAVYYCALRNQWDLVVYWGQGTLVTVSS VL: EIVLTQSPGTLSLSPGERATLSCHASQSVSSSYLAWYQQKPGQAPRLLIYGAESRATGIPDRFSGSGSGTDFTLTISRLEPEDFAVYYCQHYGSSTWTFGQGTKLEIK
Ans: 7.76
